Entry source: patent US11214803B2

Assay: Tolerability in Sprague-Dawley rats, plasma chemistry markers (Example 20)
Type: in vivo
Settings: male Sprague-Dawley rats, 50 mg/kg s.c. weekly for 6 weeks (7 doses), 48 hours after last dose
Experimental: Sprague-Dawley rats are a multipurpose model used for safety and efficacy evaluations. The rats were treated with Ionis modified oligonucleotides from the studies described in the Examples above and evaluated for changes in the levels of various plasma chemistry markers.
Strand notation (5' to 3'): a small letter for the sugar, then the base; units joined by * are phosphorothioate-linked, units joined directly phosphodiester-linked; [ ] holds rarer units or linkages, { } end groups; capitals alone tell only the bases. k = constrained ethyl (cEt); [5mC] = 5-methylcytosine; d = 2'-deoxy (DNA)
Labelling: ALB reported below 3 g/dL becomes y; at or above becomes n.

Consider the worked cases shown below.
1. 1076481 (k[5mC]*kT*kA*dA*dG*dT*dA*dA*dG*dG*dT*dT*dT*k[5mC]*k[5mC]*k[5mC]) [compound 1076481] | y
2. 1097224 (k[5mC]*kT*k[5mC]*dT*dT*dA*dT*dA*dT*dG*dG*dT*dT*kT*kT*kG; antisense) [compound 1097224] | y
3. 958499 (ATTAGAGTATGTGGCA; 3-10-3 cEt gapmer, further chemistry not given here) [compound 958499] | y

Shift focus to the following entry.
ALB under 3 g/dL? Item: 1076453 (GTAATATTGCAATCTG; 3-10-3 cEt gapmer, further chemistry not given here) [compound 1076453] n
